# measuredTarget: 5-HT7 receptor (Homo sapiens, UniProt P34969)
# Construct: purchased PerkinElmer
# Sequence (P34969 whole entry): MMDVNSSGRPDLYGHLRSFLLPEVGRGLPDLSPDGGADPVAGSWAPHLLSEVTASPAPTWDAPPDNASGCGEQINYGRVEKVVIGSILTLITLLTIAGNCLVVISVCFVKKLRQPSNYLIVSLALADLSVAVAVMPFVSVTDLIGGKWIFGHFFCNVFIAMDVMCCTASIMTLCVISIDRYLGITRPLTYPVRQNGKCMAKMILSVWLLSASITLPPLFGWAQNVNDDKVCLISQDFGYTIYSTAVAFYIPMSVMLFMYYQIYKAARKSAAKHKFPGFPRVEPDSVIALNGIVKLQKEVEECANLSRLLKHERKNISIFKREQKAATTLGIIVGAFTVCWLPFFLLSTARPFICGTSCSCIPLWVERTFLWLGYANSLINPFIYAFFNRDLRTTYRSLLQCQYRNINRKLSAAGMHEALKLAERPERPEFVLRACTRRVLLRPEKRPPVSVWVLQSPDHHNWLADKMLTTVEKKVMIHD
# testMethodNotes: Radioligand binding assay, serotoninergic 5-HT7 receptors;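 note: test compound at 1 µM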
# experimentalConditions: binding assay result in %, Table 5a
# Excerpt: The specific ligand binding to the receptors is defined as the difference between the total binding and the non-specific binding determined in the presence of the excess of unlabelled ligand. The results are expressed as a percent of control specific binding ((measured specific binding/control specific binding)×100) and as a percent inhibition of control specific binding (100−((measured specific binding/control specific binding)×100)) obtained in the presence of the test compounds. […]
Quick reference for 5-HT7 [%] among some compounds
Quick note: give the figure in %, leave out the unit.

Q: Please list 5-HT7 [%] recorded for the compound O=S(=O)(NC1CCN(CCOc2cccc3[nH]ccc23)CC1)c1cccc2ccccc12 [Compound 60]
A: 96

Q: Answer with the recorded 5-HT7 [%] of O=S(=O)(NC1CCN(CCOc2cccc3ccccc23)CC1)c1cccc(O)c1 [Compound 119] only.
A: 85

Q: Tell me its 5-HT7 [%] given Cc1cccc(S(=O)(=O)NC2CCN(CCOc3cccc4c3OCCO4)C2)c1 (stereo not shown) [Compound 97] as the entry.
A: 105

Q: Tell me 5-HT7 [%] reported for O=S(=O)(NC1CN(CCOc2cccc3c2OCCO3)C1)c1cccc(F)c1 [Compound 89]
A: 96

Q: Please give the documented 5-HT7 [%] of O=S(=O)(NC1CN(CCOc2cccc3c2OCCO3)C1)c1ccc2ccccc2c1 [Compound 95]
A: 94

Continuing:
Q: Indicate its recorded 5-HT7 [%]; the compound in question is O=S(=O)(NC1CCN(CCOc2cccc3c2OCCO3)C1)c1ccccc1 (stereo not shown) [Compound 96]
A: 98

Q: Give the value of 5-HT7 [%] reported for the following: O=S(=O)(NC1CCN(CCOc2cccc3[nH]ccc23)CC1)c1ccc2ccccc2c1 [Compound 61]
A: 95

Q: Supply measured 5-HT7 [%] of O=S(=O)(NC1CCN(CCCc2noc3cc(F)ccc23)CC1)c1ccccc1 [Compound 32] in your reply.
A: 92

Q: Indicate the recorded 5-HT7 [%] value for this compound: Cc1cccc(S(=O)(=O)NC2CCN(CCOc3cccc4c3OCCO4)CC2)c1 [Compound 118]
A: 99

Q: Return 5-HT7 [%] for the following compound: CC1(C)Cc2cccc(OCCN3CCC(NS(=O)(=O)c4cccc(O)c4)CC3)c2O1 [Compound 109]
A: 99

Q: Identify measured 5-HT7 [%] associated with O=S(=O)(NCC1CN(CCCc2noc3cc(F)ccc23)C1)c1cc2ccccc2s1 [Compound 127]
A: 96

Q: // Input: O=S(=O)(NC1CN(CCOc2cccc3c2OCCO3)C1)c1ccc(Cl)cc1 [Compound 92] . Output its 5-HT7 [%] only.
A: 99

Q: State its 5-HT7 [%] for this compound: Cc1cccc(S(=O)(=O)NCC2CCN(CCCc3noc4cc(F)ccc34)CC2)c1 [Compound 36]
A: 88

Q: Answer with the recorded 5-HT7 [%] of O=S(=O)(NCC1CCN(CCCc2noc3cc(F)ccc23)CC1)c1cccc2ccccc12 [Compound 37] only.
A: 94

Q: Dear colleague, please send me the reported 5-HT7 [%] for O=S(=O)(NC1CCN(CCOc2cccc3ccccc23)C1)c1cccc(O)c1 (stereo not shown) [Compound 115] when you can.
A: 98

Q: Respond only with 5-HT7 [%] recorded for Cc1cccc(S(=O)(=O)NC2CCN(CCOc3cccc4[nH]ccc34)CC2)c1 [Compound 56]
A: 106
